Structures can show the parent of a compound that is named as a salt.
RECORDED METRIC: melting point

Recorded results for 5 molecules are shown here.
O=C(C1CCC1)N1CCC(Oc2ccc(-c3cnc4ccccc4c3)cc2)CC1 (as salt: HCl) [Example 101]; 164 to 166 °C
CC(C)C(=O)N1CCC(Oc2ccc(-c3ccc4cnccc4c3)nc2)CC1 (as salt: HCl) [Example 148]; 236 to 241 °C
CCC(=O)N1CCC(Oc2ncc(-c3cnc4ccccc4c3)cn2)CC1 [Example 143]; 162 to 166 °C
CC(C)C(=O)N1CCC(Oc2ccc(-c3ccc4cccnc4c3)nc2)CC1 (as salt: HCl) [Example 145]; 170 to 179 °C
CCC(=O)N1CCC(Oc2ccc(-c3ccc4cnccc4c3)nc2)CC1 (as salt: HCl) [Example 147]; 236 to 245 °C

Ask: I am curious: what melting point value has been reported for CCCCNC(=O)N1CCC(Oc2ccc(-c3ccc4nccn4c3Cl)cc2)CC1 [Example 563] ?
Reply: 171 to 177 °C

Ask: I am curious: what melting point value has been reported for O=C(C1CC1)N1CCC(Oc2ccc(-c3ccc4cnccc4c3)nc2)CC1 (as salt: HCl) [Example 149] ?
Reply: 136 to 146 °C

Cited source: patent US9902696B2
